PROTOCOL_SUMMARY: Dissociation constant, pKa of compound
Type: physicochemical
ENDPOINT: pKa
No unit in the answer, please; the number alone is enough.

Query string: Which pKa value is on record for `CCc1cnc(N2CCC(COc3ccc(C4=CC[C@H](C(=O)N5CCC[C@@H]5CO)CC4)cc3)CC2)nc1` ?
Result string: 2.49

====

MEASURED_ON: Voltage-gated inwardly rectifying potassium channel KCNH2 (Homo sapiens, UniProt Q12809)
Sequence (Q12809 whole entry): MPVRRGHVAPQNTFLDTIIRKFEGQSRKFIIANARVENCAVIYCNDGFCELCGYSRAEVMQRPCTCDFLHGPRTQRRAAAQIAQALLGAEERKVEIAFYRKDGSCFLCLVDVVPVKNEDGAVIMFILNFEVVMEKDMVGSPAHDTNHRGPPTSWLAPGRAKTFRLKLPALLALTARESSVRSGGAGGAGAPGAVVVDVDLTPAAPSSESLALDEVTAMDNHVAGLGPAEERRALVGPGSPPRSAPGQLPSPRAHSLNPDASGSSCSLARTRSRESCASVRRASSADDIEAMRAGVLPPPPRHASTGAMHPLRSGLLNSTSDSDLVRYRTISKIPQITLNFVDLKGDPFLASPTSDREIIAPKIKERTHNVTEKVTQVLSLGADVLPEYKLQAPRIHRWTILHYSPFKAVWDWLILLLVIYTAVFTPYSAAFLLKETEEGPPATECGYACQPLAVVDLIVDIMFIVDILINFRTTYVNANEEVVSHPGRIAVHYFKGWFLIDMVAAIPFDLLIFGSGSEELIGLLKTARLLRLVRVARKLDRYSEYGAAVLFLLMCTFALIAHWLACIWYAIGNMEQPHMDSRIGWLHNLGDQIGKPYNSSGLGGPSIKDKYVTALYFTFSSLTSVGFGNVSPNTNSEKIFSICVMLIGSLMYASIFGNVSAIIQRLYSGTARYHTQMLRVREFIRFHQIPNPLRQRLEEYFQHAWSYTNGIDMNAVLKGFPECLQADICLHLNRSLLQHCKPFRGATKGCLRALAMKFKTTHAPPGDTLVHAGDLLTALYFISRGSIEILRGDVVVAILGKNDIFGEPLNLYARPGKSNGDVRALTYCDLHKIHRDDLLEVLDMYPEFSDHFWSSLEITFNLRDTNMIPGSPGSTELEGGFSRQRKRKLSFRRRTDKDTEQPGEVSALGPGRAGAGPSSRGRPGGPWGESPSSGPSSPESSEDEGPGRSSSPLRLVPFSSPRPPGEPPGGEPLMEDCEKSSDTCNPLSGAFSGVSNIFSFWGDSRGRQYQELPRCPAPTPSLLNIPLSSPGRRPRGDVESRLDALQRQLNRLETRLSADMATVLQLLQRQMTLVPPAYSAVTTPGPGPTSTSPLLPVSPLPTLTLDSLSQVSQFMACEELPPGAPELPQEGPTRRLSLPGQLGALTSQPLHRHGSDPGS
ENDPOINT: IC50

Query string: Form entry - test system: Voltage-gated inwardly rectifying potassium channel KCNH2 (Homo sapiens, UniProt Q12809); read-out: IC50; molecule: `CCc1cnc(N2CCC(COc3ccc(C4=CC[C@H](C(=O)N5CCC[C@@H]5CO)CC4)cc3)CC2)nc1`
Result string: > 100 µM
